Entry source: paper PMC2773749

target: K18PL tau (Homo sapiens, UniProt P10636, P618L); experiment: Primary qHTS K18PL tau assembly, fluorescence polarization; assay type: biochemical; conditions: FP, printed as Log IC50
Sequence (P10636 561-686 P618L): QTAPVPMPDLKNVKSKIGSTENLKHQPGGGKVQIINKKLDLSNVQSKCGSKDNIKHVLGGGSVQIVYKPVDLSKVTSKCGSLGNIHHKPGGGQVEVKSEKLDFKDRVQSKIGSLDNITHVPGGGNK
1° FP Screen Log IC50 values by entry

compound | 1° FP Screen Log IC50
CCOC(=O)c1nn(-c2ccc(OC)cc2)c(=O)c2c(N)scc12 [MLS000062428] | −5.0
CC(N)[C@H](O)c1ccc(O)c(O)c1 (some centres unmarked) [NCGC00093795] | −5.7
CN(C(=S)Nc1cccnc1)c1ccc(O)cc1 [MLS000339510] | −5.5
CCOC(=O)c1nn(-c2ccccc2)c(=O)c2c(N)scc12 [MLS000034832] | −5.3
CCn1c(CSc2nccn2C)nc2cc(C(=O)O)ccc21 [MLS000058666] | −5.1
